Data origin: ChEMBL document CHEMBL1961873

Molecular target: Cyclin-dependent kinase 2 (Homo sapiens);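 further: mean inhibition of the CDK2–cyclin A kinase complex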
Conditions: at 1 µM
assay readout: inhibition (%)
Write the number in % without appending the unit.

Answered examples (4):
- sample smiles: "O=C(Nc1ccc(Oc2ccc3[nH]c(NC(=O)c4ccco4)nc3c2)cc1)Nc1cc(C(F)(F)F)ccc1F"
  assay readout: "inhibition"
  quantitative readout: 3.18
- sample smiles: "Oc1cccc(-c2nc(-c3ccccc3)[nH]c2-c2ccncc2)c1"
  assay readout: "inhibition"
  quantitative readout: -1.31
- sample smiles: "CN(C)C(=O)O[C@H]1CN[C@H](C#Cc2cc3ncnc(Nc4ccc(OCc5cccc(F)c5)c(Cl)c4)c3s2)C1"
  assay readout: "inhibition"
  quantitative readout: 1.7
- sample smiles: "ON=C1CCc2cc(-c3nc(C4CCNCC4)[nH]c3-c3ccncc3)ccc21"
  assay readout: "inhibition"
  quantitative readout: -0.53

Read the next record carefully.
Consider the compound shown here: CS(=O)(=O)CCNCc1nc(-c2ccc3ncnc(Nc4ccc(OCc5cccc(C(F)(F)F)c5)cc4)c3c2)cs1 What is its recorded inhibition?
-0.45

----------
Biological target: Serine/threonine-protein kinase 4 (Homo sapiens);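 further: mean inhibition of MST1, reported as part of the GSK PKIS dataset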
Conditions: at 0.1 µM
This listing pairs compounds with measured inhibition.
Please give a number only; it is taken to be in %.

- compound: "COc1ccc2ncnc(Nc3ccc(OCc4ccccc4)cc3)c2c1"
  assay readout: "inhibition"
  unit abbreviation: "%"
  quantitative readout: 1.92
- compound: "O=C(Nc1ccc(Oc2ccc3[nH]c(NC(=O)c4ccco4)nc3c2)cc1)Nc1cc(C(F)(F)F)ccc1F"
  assay readout: "inhibition"
  unit abbreviation: "%"
  quantitative readout: -0.01
- compound: "Cc1cc(-c2ccccn2)cc(C)c1/C=C/c1cncc(-c2nn[nH]n2)c1"
  assay readout: "inhibition"
  unit abbreviation: "%"
  quantitative readout: 3.88
- compound: "NS(=O)(=O)c1ccc(-c2cc3ccncc3cc2OCc2ccccc2)cc1"
  assay readout: "inhibition"
  unit abbreviation: "%"
  quantitative readout: 5.08
- compound: "Cc1ccc2c(-c3ccnc(Nc4ccc5c(c4)OCCO5)n3)c(-c3ccc(C(F)(F)F)cc3)nn2n1"
  assay readout: "inhibition"
  unit abbreviation: "%"
  quantitative readout: 0.92
- compound: "COc1ccc(-c2nn3ncccc3c2-c2ccnc(Nc3cccc(C(F)(F)F)c3)n2)cc1"
  assay readout: "inhibition"
  unit abbreviation: "%"
  quantitative readout: 1.69

I have this compound here, CC(C)c1ccc(Nc2nccc(-c3cnn4ncccc34)n2)cc1 , and I need its recorded inhibition.
4.71

Which inhibition reading was recorded for the compound COc1cc2ncnc(Nc3ccc4c(cnn4Cc4ccccc4)c3)c2cc1OC ?
3.42

Look up inhibition for this compound: COc1cccc(-n2ncc3c(N/N=C/c4ccc(C)cc4)ncnc32)c1
5.34

Give its inhibition value. Item: NC(=O)c1cccc(Nc2nccc(Nc3cccc(F)c3)n2)c1
0.59

What does the data say about its inhibition? Entry: CC(C)c1ccc2c(c1)NC(=O)/C2=N/Nc1ccc(S(N)(=O)=O)cc1
1.52

I would be grateful if you could share the reported inhibition for Cc1nc(-c2ccccc2)n2nc(NCCCN3CCOCC3)ncc12 .
1.32

Which value of inhibition has been reported for Cc1ccc(O)cc1Nc1ccnc2ccc(S(C)(=O)=O)cc12 in the records?
4.65

Given the entry CN(C)CCCn1c(-c2nonc2N)nc2cnccc21 , report its measured inhibition.
4.23
